test_method_notes: isothermal titration calorimetry
Type: binding
test_conditions: ITC of 2 with Van, 25 °C, Figure S6
pKd: −log10 of the molar value. Where a SMILES comes first, the peptide text is derived from it. [ ]: non-standard residue; d: D form.
property_name: pKd

>>> observed_measurement("CC(=O)N[C@@H](CCCCN)C(=O)NCC(=O)NCC(=O)N[C@H](C)C(=O)N[C@H](C)C(=O)O [compound 2] (Ac-KGG[dA][dA]-OH)")
3.87
